meta.source: patent US11224565B2

# Test system: Aging related changes of skin, nail and hair
# Protocol notes: Summary of test results in volunteer subjects: aging related changes
# Type: in vivo, human
# Condition notes: efficacy grade
Peptide text beside a SMILES is read from it.
Property label: AG

[[record]]
molecule = "CC(=O)N[C@H](C(=O)N[C@@H](Cc1ccc(O)cc1)C(N)=O)C(C)C [N-Ac-L-Val-L-Tyr-NH2] (Ac-Val-Tyr-NH2)"
target_of_assay = "Aging related changes of skin, nail and hair"
property_label = "AG"
result = "2+ (2+: 50% Efficacy)"

[[record]]
molecule = "CC(=O)N[C@@H](Cc1ccc(O)cc1)C(=O)NCC(N)=O"
target_of_assay = "Aging related changes of skin, nail and hair"
property_label = "AG"
result = "2+ (2+: 50% Efficacy)"

[[record]]
molecule = "CC(=O)N[C@H](C(=O)NCC(N)=O)C(C)C [N-Ac-L-Val-Gly-NH2] (Ac-Val-Gly-NH2)"
target_of_assay = "Aging related changes of skin, nail and hair"
property_label = "AG"
result = "2+ (2+: 50% Efficacy)"

[[record]]
molecule = "CC(=O)NCC(=O)N1CCC[C@H]1C(N)=O [N-Ac-Gly-L-Pro-NH2] (Ac-Gly-Pro-NH2)"
target_of_assay = "Aging related changes of skin, nail and hair"
property_label = "AG"
result = "2+ (2+: 50% Efficacy)"

[[record]]
molecule = "CC(=O)N[C@@H](CC(C)C)C(=O)NCC(N)=O [N-Ac-L-Leu-Gly-NH2] (Ac-Leu-Gly-NH2)"
target_of_assay = "Aging related changes of skin, nail and hair"
property_label = "AG"
result = "3+ (3+: 75% Efficacy)"

[[record]]
molecule = "CCOC(=O)[C@H](Cc1ccc(O)cc1)NC(=O)[C@H](Cc1ccc(O)cc1)NC(C)=O [N-Ac-L-Tyr-L-Tyr-OEt] (HELM PEPTIDE1{[ac].Y.Y.[CCO[*:1]]}$$$$V2.0)"
target_of_assay = "Aging related changes of skin, nail and hair"
property_label = "AG"
result = "2+ (2+: 50% Efficacy)"

[[record]]
molecule = "CC(=O)N[C@@H](Cc1ccc(O)cc1)C(=O)N[C@@H](Cc1ccc(O)cc1)C(=O)NN [N-Ac-L-Tyr-L-Tyr-NHNH2] (HELM PEPTIDE1{[ac].Y.Y.[NN[*:1]]}$$$$V2.0)"
target_of_assay = "Aging related changes of skin, nail and hair"
property_label = "AG"
result = "3+ (3+: 75% Efficacy)"

[[record]]
molecule = "CC(=O)N[C@@H](CC(C)C)C(=O)N[C@@H](Cc1ccc(O)cc1)C(N)=O [N-Ac-L-Leu-L-Tyr-NH2] (Ac-Leu-Tyr-NH2)"
target_of_assay = "Aging related changes of skin, nail and hair"
property_label = "AG"
result = "2+ (2+: 50% Efficacy)"

[[record]]
molecule = "CC(=O)N[C@@H](CO)C(=O)NCC(N)=O [N-Ac-L-Ser-Gly-NH2] (Ac-Ser-Gly-NH2)"
target_of_assay = "Aging related changes of skin, nail and hair"
property_label = "AG"
result = "2+ (2+: 50% Efficacy)"

[[record]]
molecule = "CC[C@H](C)[C@H](NC(C)=O)C(=O)NCC(N)=O [N-Ac-L-Ile-Gly-NH2] (Ac-Ile-Gly-NH2)"
target_of_assay = "Aging related changes of skin, nail and hair"
property_label = "AG"
result = "3+ (3+: 75% Efficacy)"

[[record]]
molecule = "CC(=O)N[C@@H](CS)C(=O)NCC(N)=O"
target_of_assay = "Aging related changes of skin, nail and hair"
property_label = "AG"
result = "2+ (2+: 50% Efficacy)"


* * *

# System: Deranged immune disorders and inflammation
# Protocol notes: Summary of test results in volunteer subjects: deranged immune disorders and inflammation
# Type: in vivo, human
# Condition notes: efficacy grade
Peptide text beside a SMILES is read from it.
Consider the following compounds and their measured DI readings.
Property label: DI

[[record]]
compound = "CC(=O)N[C@@H](Cc1ccc(O)cc1)C(=O)N[C@@H](Cc1ccc(O)cc1)C(=O)O [N-Ac-L-Tyr-L-Tyr-OH] (Ac-Tyr-Tyr-OH)"
property_label = "DI"
result = "3+ (3+: 75% Efficacy)"

[[record]]
compound = "CC(=O)N[C@H](C(=O)NCC(=O)O)C(C)C [N-Ac-L-Val-Gly-OH] (Ac-Val-Gly-OH)"
property_label = "DI"
result = "3+ (3+: 75% Efficacy)"

[[record]]
compound = "CC[C@H](C)[C@H](NC(C)=O)C(=O)NCC(N)=O [N-Ac-L-Ile-Gly-NH2] (Ac-Ile-Gly-NH2)"
property_label = "DI"
result = "4+ (4+: 95-100% Efficacy)"

[[record]]
compound = "CC(=O)N[C@H](C(=O)N[C@@H](C)C(N)=O)C(C)C [N-Ac-L-Val-L-Ala-NH2] (Ac-Val-Ala-NH2)"
property_label = "DI"
result = "4+ (4+: 95-100% Efficacy)"

[[record]]
compound = "CC(=O)N[C@H](C(=O)NCC(N)=O)C(C)C [N-Ac-L-Val-Gly-NH2] (Ac-Val-Gly-NH2)"
property_label = "DI"
result = "4+ (4+: 95-100% Efficacy)"

[[record]]
compound = "CC(=O)N[C@H](C(=O)N[C@@H](Cc1ccc(O)cc1)C(N)=O)C(C)C [N-Ac-L-Val-L-Tyr-NH2] (Ac-Val-Tyr-NH2)"
property_label = "DI"
result = "2+ (2+: 50% Efficacy)"

[[record]]
compound = "CC(=O)N[C@H](C(=O)N[C@@H](C)C(=O)O)C(C)C [N-Ac-L-Val-L-Ala-OH] (Ac-Val-Ala-OH)"
property_label = "DI"
result = "3+ (3+: 75% Efficacy)"

[[record]]
compound = "CC(=O)N[C@@H](CS)C(=O)N[C@@H](Cc1ccc(O)cc1)C(N)=O [N-Ac-L-Cys-L-Tyr-NH2] (Ac-Cys-Tyr-NH2)"
property_label = "DI"
result = "2+ (2+: 50% Efficacy)"

[[record]]
compound = "CC(=O)N[C@@H](Cc1c[nH]c2ccccc12)C(=O)N[C@@H](Cc1c[nH]c2ccccc12)C(N)=O [N-Ac-L-Trp-L-Trp-NH2] (Ac-Trp-Trp-NH2)"
property_label = "DI"
result = "2+ (2+: 50% Efficacy)"

[[record]]
compound = "CC[C@H](C)[C@H](NC(C)=O)C(=O)N[C@@H](C)C(N)=O [N-Ac-L-Ile-L-Ala-NH2] (Ac-Ile-Ala-NH2)"
property_label = "DI"
result = "4+ (4+: 95-100% Efficacy)"

[[record]]
compound = "CC[C@H](C)[C@H](NC(=O)[C@@H](NC(C)=O)[C@@H](C)CC)C(N)=O [N-Ac-L-Ile-L-Ile-NH2] (Ac-Ile-Ile-NH2)"
property_label = "DI"
result = "3+ (3+: 75% Efficacy)"

[[record]]
compound = "CC(=O)Nc1ccccc1C(=O)NCC(N)=O"
property_label = "DI"
result = "3+ (3+: 75% Efficacy)"

[[record]]
compound = "CC(=O)N[C@@H](CC(C)C)C(=O)NCC(=O)O [N-Ac-L-Leu-Gly-OH] (Ac-Leu-Gly-OH)"
property_label = "DI"
result = "3+ (3+: 75% Efficacy)"

[[record]]
compound = "CC(=O)N[C@@H](Cc1ccccc1)C(=O)N[C@@H](Cc1ccccc1)C(N)=O [N-Ac-L-Phe-L-Phe-NH2] (Ac-Phe-Phe-NH2)"
property_label = "DI"
result = "2+ (2+: 50% Efficacy)"

[[record]]
compound = "CC(=O)NCC(=O)NCC(N)=O"
property_label = "DI"
result = "2+ (2+: 50% Efficacy)"

